These measurements were taken from the supplement of paper PMC10307832.

Entries and their measured relative viability follow.
Tested on: RERF-LC-KJ
Assay: relative viability (nuclei count vs DMSO), 5 days (fraction); higher = more cells survive
Conditions: first compound 0.1265 µM
Please reply with the value in numeric form only.

COc1cc(N2CCC(C(N)=O)CC2)ccc1Nc1nc(N)c(Cl)c(Nc2ccccc2S(=O)(=O)C(C)C)n1 [HG-5-88-01] + Cc1nc(Nc2ncc(C(=O)Nc3c(C)cccc3Cl)s2)cc(N2CCN(CCO)CC2)n1 [Dasatinib] (partner 0.075 µM) : 0.81

Okay, now this molecule:
# assay system RERF-LC-KJ: give relative viability of Clc1ccc(Nc2nnc(Cc3ccncc3)c3ccccc23)cc1 [Vatalanib] + CC(C)C[C@H](NC(=O)[C@H](Cc1ccccc1)NC(=O)c1cnccn1)B(O)O [Bortezomib] (partner 0.002 µM)
1.1

* * *

Test system: NCI-H322M
Assay: relative viability (nuclei count vs DMSO), 5 days (fraction); higher = more cells survive
Details: first compound 0.01 µM
readout.type: relative viability

Worked cases, answers included:
CC(C)Oc1cc(Nc2nc(N[C@@H](C)c3ccc(F)cn3)ncc2Cl)n[nH]1 [AZ23] + NC(=O)Nc1cc(-c2cccc(F)c2)sc1C(=O)N[C@H]1CCCNC1 [AZD7762] (partner 0.2 µM) : 0.468
CC(C)Oc1cc(Nc2nc(N[C@@H](C)c3ccc(F)cn3)ncc2Cl)n[nH]1 [AZ23] + C[C@]1(O)C[C@@H](c2nc(-c3ccc4ccc(-c5ccccc5)nc4c3)c3c(N)nccn32)C1 [Linsitinib] (partner 1 µM) : 0.919
CC(C)Oc1cc(Nc2nc(N[C@@H](C)c3ccc(F)cn3)ncc2Cl)n[nH]1 [AZ23] + Nc1nc2[nH]cc(CCc3ccc(C(=O)N[C@@H](CCC(=O)O)C(=O)O)cc3)c2c(=O)[nH]1 [Pemetrexed] (partner 0.2 µM) : 0.536

Now look at this entry.
Give a short answer stating reported relative viability for CC(C)Oc1cc(Nc2nc(N[C@@H](C)c3ccc(F)cn3)ncc2Cl)n[nH]1 [AZ23] + Cc1nc(NC(=O)N2CCC[C@H]2C(N)=O)sc1-c1ccnc(C(C)(C)C(F)(F)F)c1 [Alpelisib] (partner 2 µM) .
0.774

* * *

Test system: RERF-LC-KJ
Assay: relative viability (nuclei count vs DMSO), 5 days (fraction); higher = more cells survive
Details: first compound 0.1265 µM
readout.type: relative viability

C[C@@H]1CN(CC(=O)Nc2ccc3c(c2)Cc2cccc(-c4cc(=O)cc(N5CCOCC5)o4)c2S3)C[C@H](C)O1 + CS(=O)(=O)CCNCc1ccc(-c2ccc3ncnc(Nc4ccc(OCc5cccc(F)c5)c(Cl)c4)c3c2)o1 [Lapatinib] (partner 2 µM) : 0.877
COc1cc(N2CCC(C(N)=O)CC2)ccc1Nc1nc(N)c(Cl)c(Nc2ccccc2S(=O)(=O)C(C)C)n1 [HG-5-88-01] + Nc1ncn([C@H]2C[C@H](O)[C@@H](CO)O2)c(=O)n1 [Decitabine] (partner 2 µM) : 0.737
C[C@@H]1CN(CC(=O)Nc2ccc3c(c2)Cc2cccc(-c4cc(=O)cc(N5CCOCC5)o4)c2S3)C[C@H](C)O1 + NC(=O)Nc1cc(-c2cccc(F)c2)sc1C(=O)N[C@H]1CCCNC1 [AZD7762] (partner 0.2 µM) : 0.955

Look up relative viability of C[C@@H]1CN(CC(=O)Nc2ccc3c(c2)Cc2cccc(-c4cc(=O)cc(N5CCOCC5)o4)c2S3)C[C@H](C)O1 + Cc1nc(Nc2ncc(C(=O)Nc3c(C)cccc3Cl)s2)cc(N2CCN(CCO)CC2)n1 [Dasatinib] (partner 0.075 µM) and report it.
0.813

* * *

Test system: EBC-1
Assay: relative viability (nuclei count vs DMSO), 5 days (fraction); higher = more cells survive
Conditions: first compound 4 µM
# relative viability values compiled below
Number only, no unit.

Clc1ccc(Nc2nnc(Cc3ccncc3)c3ccccc23)cc1 [Vatalanib] + O=C(c1cc(Cc2n[nH]c(=O)c3ccccc23)ccc1F)N1CCN(C(=O)C2CC2)CC1 [Olaparib] (partner 8 µM) : 0.654

Please report the measured relative viability for Clc1ccc(Nc2nnc(Cc3ccncc3)c3ccccc23)cc1 [Vatalanib] + C[C@]1(O)C[C@@H](c2nc(-c3ccc4ccc(-c5ccccc5)nc4c3)c3c(N)nccn32)C1 [Linsitinib] (partner 1 µM)
0.808

Determine from records and report relative viability for COc1cc(N2CCC(C(N)=O)CC2)ccc1Nc1nc(N)c(Cl)c(Nc2ccccc2S(=O)(=O)C(C)C)n1 [HG-5-88-01] + C[C@@H](Oc1cc(-c2cnn(C3CCNCC3)c2)cnc1N)c1c(Cl)ccc(F)c1Cl [Crizotinib] (partner 1 µM)
0.142

* * *

Test system: ChaGo-K-1
Experiment: relative viability (nuclei count vs DMSO), 5 days (fraction); higher = more cells survive
Conditions: first compound 1.265 µM
Entries whose relative viability is below 0.7 take satisfied; entries at or above 0.7 take not satisfied.

Example results:
COc1cc(N2CCC(C(N)=O)CC2)ccc1Nc1nc(N)c(Cl)c(Nc2ccccc2S(=O)(=O)C(C)C)n1 [HG-5-88-01] + CCNC(=O)c1noc(-c2cc(C(C)C)c(O)cc2O)c1-c1ccc(CN2CCOCC2)cc1 [Luminespib] (partner 0.01 µM) : satisfied
Clc1ccc(Nc2nnc(Cc3ccncc3)c3ccccc23)cc1 [Vatalanib] + O=C(c1cc(Cc2n[nH]c(=O)c3ccccc23)ccc1F)N1CCN(C(=O)C2CC2)CC1 [Olaparib] (partner 8 µM) : satisfied

Input Clc1ccc(Nc2nnc(Cc3ccncc3)c3ccccc23)cc1 [Vatalanib] + COc1cccc2cc(-c3nc([C@H]4CC[C@H](C(=O)O)CC4)n4ncnc(N)c34)[nH]c12 [OSI-027] (partner 0.5 µM) ; condition: relative viability strictly below 0.7. Does it hold?
satisfied

Bench note: check whether Clc1ccc(Nc2nnc(Cc3ccncc3)c3ccccc23)cc1 [Vatalanib] + O=C(CCCCCCC(=O)Nc1ccccc1)NO [Vorinostat] (partner 1 µM) shows relative viability below 0.7
not satisfied

Identify whether the compound Clc1ccc(Nc2nnc(Cc3ccncc3)c3ccccc23)cc1 [Vatalanib] + CC(C)C[C@H](NC(=O)[C@H](Cc1ccccc1)NC(=O)c1cnccn1)B(O)O [Bortezomib] (partner 0.002 µM) records relative viability below 0.7.
not satisfied

* * *

System: NCI-H520
Assay: relative viability (nuclei count vs DMSO), 5 days (fraction); higher = more cells survive
Details: first compound 0.04 µM
Examples of molecules with documented relative viability follow.

C[C@@H]1CN(CC(=O)Nc2ccc3c(c2)Cc2cccc(-c4cc(=O)cc(N5CCOCC5)o4)c2S3)C[C@H](C)O1 + CC(=O)Nc1cccc(-n2c(=O)n(C3CC3)c(=O)c3c(Nc4ccc(I)cc4F)n(C)c(=O)c(C)c32)c1 [Trametinib] (partner 0.02 µM) : 0.675

Moving on to the next molecule.
Fill in relative viability for record Clc1ccc(Nc2nnc(Cc3ccncc3)c3ccccc23)cc1 [Vatalanib] + Nc1ncn([C@H]2C[C@H](O)[C@@H](CO)O2)c(=O)n1 [Decitabine] (partner 2 µM)
0.504

* * *

Tested on: LXF-289
Assay: relative viability (nuclei count vs DMSO), 5 days (fraction); higher = more cells survive
Conditions: first compound 0.3162 µM
readout.type: relative viability
Quick one: just the number, no unit, thanks!

Examples with their reported relative viability follow.
CC(C)Oc1cc(Nc2nc(N[C@@H](C)c3ccc(F)cn3)ncc2Cl)n[nH]1 [AZ23] + COc1cc2c(Oc3ccc(NC(=O)C4(C(=O)Nc5ccc(F)cc5)CC4)cc3F)ccnc2cc1OCCCN1CCOCC1 [Foretinib] (partner 0.25 µM) : 0.949
CC(C)Oc1cc(Nc2nc(N[C@@H](C)c3ccc(F)cn3)ncc2Cl)n[nH]1 [AZ23] + O=C(CCCCCCC(=O)Nc1ccccc1)NO [Vorinostat] (partner 1 µM) : 0.737

Now for a further compound.
Tell me its relative viability given CC(C)Oc1cc(Nc2nc(N[C@@H](C)c3ccc(F)cn3)ncc2Cl)n[nH]1 [AZ23] + O=C(c1cc(Cc2n[nH]c(=O)c3ccccc23)ccc1F)N1CCN(C(=O)C2CC2)CC1 [Olaparib] (partner 8 µM) as the entry.
1.1

* * *

System: NCI-H1993
Assay: relative viability (nuclei count vs DMSO), 5 days (fraction); higher = more cells survive
Conditions: first compound 0.1265 µM
readout.type: relative viability
Format: numeric value only, no unit, no commentary.

# example entries with known answers
Clc1ccc(Nc2nnc(Cc3ccncc3)c3ccccc23)cc1 [Vatalanib] + COc1cccc2cc(-c3nc([C@H]4CC[C@H](C(=O)O)CC4)n4ncnc(N)c34)[nH]c12 [OSI-027] (partner 0.5 µM) : 0.558
C[C@@H]1CN(CC(=O)Nc2ccc3c(c2)Cc2cccc(-c4cc(=O)cc(N5CCOCC5)o4)c2S3)C[C@H](C)O1 + Cc1nc(Nc2ncc(C(=O)Nc3c(C)cccc3Cl)s2)cc(N2CCN(CCO)CC2)n1 [Dasatinib] (partner 0.075 µM) : 0.626
Clc1ccc(Nc2nnc(Cc3ccncc3)c3ccccc23)cc1 [Vatalanib] + Nc1nc2[nH]cc(CCc3ccc(C(=O)N[C@@H](CCC(=O)O)C(=O)O)cc3)c2c(=O)[nH]1 [Pemetrexed] (partner 0.2 µM) : 0.644

Quick one: give measured relative viability for COc1cc(N2CCC(C(N)=O)CC2)ccc1Nc1nc(N)c(Cl)c(Nc2ccccc2S(=O)(=O)C(C)C)n1 [HG-5-88-01] + CCNC(=O)c1noc(-c2cc(C(C)C)c(O)cc2O)c1-c1ccc(CN2CCOCC2)cc1 [Luminespib] (partner 0.01 µM)
0.826
